B1: CCDC6 (parent)
chain: FTPPTSLTRAGMSYYNSPGLHVQH

# Variants of: B1
# PROCEDURE_SUMMARY: protein stability index of a GFP-peptide fusion (GPS, HEK-293T) (PSI 1-6); higher = more stable;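 further: lentivirally expressed fusions sorted by FACS into six bins by GFP to DsRed ratio, PSI derived from sequencing read proportions per bin multiplied by bin number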
# CONDITION: c terminus: a fixed tail appended
OBSERVATION_TYPE: protein stability index
Could you keep your reply to the number by itself?

Guide cases for protein stability index, answers given:
mutation_code=T5L test_value=2.29
mutation_code=G11S test_value=2.23
mutation_code=S13R test_value=1.87

## Input Indicate the recorded protein stability index value for this variant: M12I
## Output 2.02

## Input Please indicate protein stability index recorded for N16E
## Output 1.62

## Input Give the value of protein stability index reported for the following: L20I
## Output 2.36
